- Experimental conditions: buffer; pH 7.4; 6.0 h; 150.0 µM
Quantity kind: solubility kinetic

# annotated cases, reported solubility kinetic shown
COc1ccc(C(=O)Nc2nc(-c3ccccc3)cs2)cc1NS(=O)(=O)c1ccc(C)cc1; < 1 µg/mL
COC(=O)c1cc2occc2n1Cc1nc(-c2ccc(C)cc2)oc1C; < 1 µg/mL
Cc1nn2c(c1-c1ccccc1-c1ccccc1)N(Cc1ccc(O)cc1)CCC2; < 1 µg/mL

Prompt line: Look up solubility kinetic: CCOc1ccc(CCNC(=O)c2cc3sccc3n2Cc2ccccc2)c(F)c1OCC
Response line: < 1 µg/mL

Prompt line: Can you share its solubility kinetic? I mean this compound: COc1c(NS(=O)(=O)c2ccc(C)cc2)cccc1C(=O)Nc1nc(-c2ccccc2)cs1
Response line: < 1 µg/mL

Prompt line: Name the recorded solubility kinetic for CCCCN(CC)CCCNC(=O)c1ccc2c(c1)N(Cc1ccc(C)cc1)C(=O)c1ccccc1S2 .
Response line: > 76 µg/mL

###

The following molecules are listed with their measured solubility kinetic values.
- Experimental conditions: buffer; pH 7.4; 6.0 h; 150.0 µM

Cc1ccc(NC(=O)CSc2ncc(S(=O)(=O)c3ccc(C(C)C)cc3)c(=O)[nH]2)cc1C; > 70 µg/mL

Prompt line: Which solubility kinetic value belongs to Cn1c(=O)c2[nH]c(=O)[nH]c2n(C)c1=O ?
Response line: > 29 µg/mL

Prompt line: Bench note: what solubility kinetic did Cc1ccc(CNc2ccccc2C(=O)Nc2nc(-c3ccccc3)cs2)cc1 show?
Response line: < 1 µg/mL

Prompt line: Item under review: Cc1sc(NC(=O)Cc2ccc3c(c2)OCO3)nc1-c1ccc2c(c1)CCN2C(=O)c1ccccc1C(F)(F)F . Reported solubility kinetic?
Response line: < 1 µg/mL

Prompt line: Which solubility kinetic is listed for COC(=O)CSc1nc(-c2ccccc2)cc(-c2ccco2)c1C#N ?
Response line: < 1 µg/mL

Prompt line: Form field: reported solubility kinetic of CC#CC(=O)N1CCC[C@H]1c1nc(-c2ccc(C(=O)Nc3ccccn3)cc2)c2c(N)nccn12
Response line: > 69 µg/mL

###

Each item that follows carries a reported solubility kinetic.
- Experimental conditions: buffer; pH 7.4; 6.0 h; 150.0 µM
Return type: number; implicit unit µg/mL.

These solved cases illustrate the format of a correct answer.
COc1ccc(CCN2C(=O)N(c3ccc(F)cc3)C(=O)C2CC(=O)Nc2ccc(F)c(F)c2)cc1 (stereo not given); 9.71
O=c1cc(/C=C/c2c(F)cccc2Cl)[nH]c2ccccc12; 1.73
CCOP(=O)(Cc1ccc(C(=O)Nc2ccc(Br)cc2C#N)cc1)OCC; 14.9

Prompt line: Which solubility kinetic value belongs to Cc1ccc(S(=O)(=O)n2cc(C(=O)Nc3nc(-c4ccccc4)cs3)c3ccccc32)cc1 ?
Response line: 2.2

Prompt line: Which solubility kinetic value belongs to Cc1ccc(C(=O)Nc2nc3nc(-c4ccccc4)cc(=O)n3[nH]2)cc1 ?
Response line: 2.64

Prompt line: Find the recorded solubility kinetic belonging to CS(=O)(=O)c1cccc(-c2csc(N3CCC(C(N)=O)CC3)n2)c1 and report it.
Response line: 11.7

Prompt line: What value of measured solubility kinetic is listed for Cc1ccc(-n2nc(C)c3c(-c4ccc(O)c(O)c4)c(C#N)c(N)nc32)cc1C ?
Response line: 1.81

Prompt line: I would be grateful if you could share the reported solubility kinetic for COc1ccc(CCNC(=O)Cn2c(=O)c3cccn3c3ccc(F)cc32)cc1OC .
Response line: 6.63

Values compiled from PubChem BioAssay AID1645848.
